Hi there, I'd appreciate the recorded Ki for every entry that follows.
Molecular target: Neuronal acetylcholine receptor subunit alpha-7 (Homo sapiens, UniProt P36544)
Sequence (P36544 whole entry): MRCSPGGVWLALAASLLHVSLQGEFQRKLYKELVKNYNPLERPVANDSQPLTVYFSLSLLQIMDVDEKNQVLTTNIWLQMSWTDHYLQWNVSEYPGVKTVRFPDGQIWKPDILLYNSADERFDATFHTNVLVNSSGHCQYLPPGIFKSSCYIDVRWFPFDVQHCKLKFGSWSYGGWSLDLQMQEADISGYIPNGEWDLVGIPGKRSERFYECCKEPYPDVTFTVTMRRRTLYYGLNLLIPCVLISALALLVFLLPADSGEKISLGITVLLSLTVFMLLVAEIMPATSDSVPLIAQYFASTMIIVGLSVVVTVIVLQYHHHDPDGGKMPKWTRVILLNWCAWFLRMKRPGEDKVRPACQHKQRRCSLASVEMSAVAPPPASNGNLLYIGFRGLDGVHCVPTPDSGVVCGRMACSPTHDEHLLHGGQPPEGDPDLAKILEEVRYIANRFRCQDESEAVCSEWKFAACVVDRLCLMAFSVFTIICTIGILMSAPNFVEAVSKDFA
Test: Displacement of [3H]methyllycaconitine from alpha7 nAChR in tsA201 cells co-expressed with Ric3
Format: cell-based
Conditions: read-out: pKi (converted)
Give a bare numeral; the unit nM is implied.

Query: Can you share its Ki? I mean this molecule: C1=C2CN3CC[C@@H]4[C@@H]5[C@H]([C@@H](OC1)N1c6ccccc6[C@@]67CCN8CC9=CCO[C@H]([C@@H]([C@H]16)[C@H]9C[C@H]87)N5c1ccccc1)[C@H]2C[C@@H]43
Response: 1000

Query: Follow-up entry: C1=CC([N+]23CC[C@@H]4[C@@H]5[C@@H]6[C@@H](OCC=C(C2)[C@@H]6C[C@@H]43)N2c3ccccc3[C@@]34CC[N+]6(C7C=CCCC7)CC7=CCO[C@H]([C@@H]([C@H]23)[C@H]7C[C@@H]46)N5c2ccccc2)CCC1.[Br-].[Br-] (some centres not stated)
Response: 631

---

Target: Neuronal acetylcholine receptor subunit alpha-7 (Homo sapiens, UniProt P36544)
Assay: Displacement of [3H]methyllycaconitine from alpha7 nAChR in tsA201 cells co-expressed with Ric3
Format: cell-based
Conditions: read-out: pKi (converted)
measured_attribute: Ki
Hey, just the number and the unit after it is fine.

Query: Neuronal acetylcholine receptor subunit alpha-7 (Homo sapiens, UniProt P36544) / Ki / O=[N+]([O-])c1ccc(C[N+]23CC[C@@H]4[C@@H]5[C@@H]6[C@@H](OCC=C(C2)[C@@H]6C[C@@H]43)N2c3ccccc3[C@@]34CC[N+]6(Cc7ccc([N+](=O)[O-])cc7)CC7=CCO[C@H]([C@@H]([C@H]23)[C@H]7C[C@@H]46)N5c2ccccc2)cc1.[Br-].[Br-] (some centres undefined) : value?
Response: 31.6 nM

Query: Same lookup for CCN1C[C@]2(COC(=O)c3ccccc3N3C(=O)C[C@H](C)C3=O)CC[C@H](OC)[C@@]34[C@@H]5C[C@H]6[C@H](OC)[C@@H]5[C@](O)(C[C@@H]6OC)[C@](O)([C@@H](OC)[C@H]23)[C@@H]14 [METHYLLYCACONITINE] , please.
Response: 6.31 nM

Query: Continue with C=CC[N+]12CC[C@@H]3[C@@H]4[C@@H]5[C@@H](OCC=C(C1)[C@@H]5C[C@@H]32)N1c2ccccc2[C@@]23CC[N+]5(CC=C)CC6=CCO[C@H]([C@@H]([C@H]12)[C@H]6C[C@@H]35)N4c1ccccc1.[Br-].[Br-] (some centres undefined)
Response: 31.6 nM

Query: What about C[N+]12CCC34c5ccccc5N5/C=C6/[C@H]7C[C@H]8[C@@]9(CC[N+]8(C)C/C7=C/CO)c7ccccc7N(/C=C(/[C@@H](C[C@@H]31)/C(=C\CO)C2)[C@H]54)[C@@H]69.[Cl-].[Cl-] (some centres undefined) [TOXIFERINE] ?
Response: 2510 nM

---

Target: Neuronal acetylcholine receptor; alpha3/beta4 (Rattus norvegicus, UniProt P04757+P12392)
Sequence (P04757 whole entry): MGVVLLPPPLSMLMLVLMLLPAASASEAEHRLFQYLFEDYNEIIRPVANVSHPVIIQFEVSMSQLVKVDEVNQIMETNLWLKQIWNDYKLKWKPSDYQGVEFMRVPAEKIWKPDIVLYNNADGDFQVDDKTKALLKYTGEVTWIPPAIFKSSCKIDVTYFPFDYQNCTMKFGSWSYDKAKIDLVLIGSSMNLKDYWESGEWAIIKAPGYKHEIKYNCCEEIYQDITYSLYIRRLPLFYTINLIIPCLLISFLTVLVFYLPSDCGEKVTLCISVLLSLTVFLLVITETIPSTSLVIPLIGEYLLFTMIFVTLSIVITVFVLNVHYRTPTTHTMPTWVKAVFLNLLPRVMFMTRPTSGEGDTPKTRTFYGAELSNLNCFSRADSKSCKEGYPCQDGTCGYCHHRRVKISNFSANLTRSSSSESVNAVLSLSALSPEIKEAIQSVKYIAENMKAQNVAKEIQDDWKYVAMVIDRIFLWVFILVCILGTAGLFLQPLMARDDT
Sequence (P12392 whole entry): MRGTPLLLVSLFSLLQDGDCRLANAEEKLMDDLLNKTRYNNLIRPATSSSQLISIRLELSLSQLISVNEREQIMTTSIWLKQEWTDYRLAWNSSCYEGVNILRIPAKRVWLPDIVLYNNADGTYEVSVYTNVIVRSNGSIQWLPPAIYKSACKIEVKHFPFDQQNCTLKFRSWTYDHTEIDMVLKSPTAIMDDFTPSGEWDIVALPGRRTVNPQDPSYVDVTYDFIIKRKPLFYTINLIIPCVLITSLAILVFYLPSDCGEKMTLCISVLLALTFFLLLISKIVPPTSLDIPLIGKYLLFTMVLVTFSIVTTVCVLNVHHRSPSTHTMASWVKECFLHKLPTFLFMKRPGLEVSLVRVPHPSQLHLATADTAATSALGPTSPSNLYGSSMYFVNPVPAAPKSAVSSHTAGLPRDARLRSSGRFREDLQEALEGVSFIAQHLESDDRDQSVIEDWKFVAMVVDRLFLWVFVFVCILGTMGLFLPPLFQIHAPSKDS
Test: Antagonist activity at rat alpha3beta4 nAChR expressed in HEK293 cells by FMP assay
Assay type: functional, cell-based, Homo sapiens
Conditions: read-out: IC50
measured_attribute: IC50 (µM)
Value expressed in µM; do not type the unit.

Query: API: value(readout= IC50, system= Neuronal acetylcholine receptor; alpha3/beta4 (Rattus norvegicus, UniProt P04757+P12392), query= C=CC[N+]12CC[C@@]34c5ccccc5N5/C=C6/[C@H]7C[C@H]8[C@@]9(CC[N@@+]8(CC=C)C/C7=C/CO)c7ccccc7N(/C=C(/[C@@H](C[C@@H]31)/C(=C\CO)C2)[C@H]54)[C@@H]69 (stereo not given in full) )
Response: 18

Query: # repeat for C/C=C/C[N+]12CC[C@@H]3[C@@H]4[C@@H]5[C@@H](OCC=C(C1)[C@@H]5C[C@@H]32)N1c2ccccc2[C@@]23CC[N+]5(C/C=C/C)CC6=CCO[C@H]([C@@H]([C@H]12)[C@H]6C[C@@H]35)N4c1ccccc1.[Br-].[Br-] (stereo not given in full)
Response: 100

Query: Note, next up: OC/C=C1/C[N+]2(C3C=CCCC3)CC[C@@H]3[C@@H]4/C(=C\N5c6ccccc6[C@@]67CC[N+]8(C9C=CCCC9)CC9=CCO[C@H]([C@@H]([C@H]56)[C@H]9C[C@@H]78)N4c4ccccc4)[C@H]1C[C@@H]32.[Br-].[Br-] (stereo not given in full)
Response: 30
